- TARGET: T1, human PD-L1 recombinant protein (human, UniProt Q9NZQ7 19-238)
- T1 construct: also called recombinant PD-L1 protein; recombinant PD-L1
- T1 sequence (Q9NZQ7 19-238 limits assumed): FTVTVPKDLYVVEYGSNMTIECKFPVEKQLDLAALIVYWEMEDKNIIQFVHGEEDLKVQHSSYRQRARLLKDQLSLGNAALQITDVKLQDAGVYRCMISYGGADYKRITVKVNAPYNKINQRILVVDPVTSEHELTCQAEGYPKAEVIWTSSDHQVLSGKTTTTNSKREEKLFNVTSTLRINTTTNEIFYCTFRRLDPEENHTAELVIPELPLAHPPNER
- EXPERIMENT DESCRIPTION: BLI, human PD-L1 recombinant protein
READOUT NAME: kon

* hzF2-m4 (VHH, The parent hzF2 is a VHH-human IgG1 Fc fusion; also called humanized single variable domain antibody hzF2-m4) VHH: EVQLVESGGGLVQPGGSLRLSCAASRDSNDGASCMGWFRQAPGKGLEGVAIIFNAGERTDYGDSVKGRFTISRDNAKNTLYLQMNSLRAEDTAVYYCATVWCGSWVARSWGQGTLVTVSS | 695000 M⁻¹ s⁻¹
* hzF2-m2 (VHH, The parent hzF2 is a VHH-human IgG1 Fc fusion; also called humanized single variable domain antibody hzF2-m2) VHH: EVQLVESGGGLVQPGGSLRLSCAASGDSDDGASCMGWFRQAPGKGLEGVAIIFNAGERTDYGDSVKGRFTISRDNAKNTLYLQMNSLRAEDTAVYYCATVWCGSWVARSWGQGTLVTVSS | 562000 M⁻¹ s⁻¹
* hzF2-m9 (VHH, also called humanized single variable domain antibody hzF2-m9) VHH: EVQLVESGGGLVQPGGSLRLSCAASRDSDEGASCMGWFRQAPGKEREGVAIIFNAGERTDYGDSVKGRFTISRDNAKNTLYLQMNSLRAEDTAVYYCATVWCGSWVARSWGQGTLVTVSS | 324000 M⁻¹ s⁻¹
* hzF2-m3 (VHH, The parent hzF2 is a VHH-human IgG1 Fc fusion; also called humanized single variable domain antibody hzF2-m3) VHH: EVQLVESGGGLVQPGGSLRLSCAASRDSSSGASCMGWFRQAPGKGLEGVAIIFNAGERTDYGDSVKGRFTISRDNAKNTLYLQMNSLRAEDTAVYYCATVWCGSWVARSWGQGTLVTVSS | 624000 M⁻¹ s⁻¹
* hzF2-m7 (VHH, The parent hzF2 is a VHH-human IgG1 Fc fusion; also called humanized single variable domain antibody hzF2-m7) VHH: EVQLVESGGGLVQPGGSLRLSCAASRDSDDSASCMGWFRQAPGKGLEGVAIIFNAGERTDYGDSVKGRFTISRDNAKNTLYLQMNSLRAEDTAVYYCATVWCGSWVARSWGQGTLVTVSS | 341000 M⁻¹ s⁻¹
